# tested on: human MCHR1 (Homo sapiens)
# Construct: expressed in transfected cells; host or cells: CHO dhfr- cells, clone #4
# Sequence (Q99705 whole entry): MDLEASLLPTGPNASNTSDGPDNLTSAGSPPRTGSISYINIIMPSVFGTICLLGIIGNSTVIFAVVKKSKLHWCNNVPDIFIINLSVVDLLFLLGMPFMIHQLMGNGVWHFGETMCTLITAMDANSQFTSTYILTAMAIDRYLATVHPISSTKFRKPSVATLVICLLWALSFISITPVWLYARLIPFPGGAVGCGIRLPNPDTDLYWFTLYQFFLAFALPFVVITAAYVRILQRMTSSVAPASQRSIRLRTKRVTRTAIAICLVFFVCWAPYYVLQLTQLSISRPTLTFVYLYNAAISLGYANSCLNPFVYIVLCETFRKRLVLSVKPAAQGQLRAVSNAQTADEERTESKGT
# assay info: MCH receptor 1 antagonistic activity, Ca2+ mobilization assay
# Assay type: cell-based
# reported conditions: CHO, test compound 0.1 μM; human MCHR1-expressing CHO cells (clone #4); ligand MCH(4-19) 2 nM; read-out: Inhibitory rate % (0.1 μM)
Measured inhibition at 0.1 µM, listed per entry for reference.
measure name: inhibition at 0.1 µM (%)

[[record]]
compound = "CCc1nc2ccc(-n3ccc(OCc4cc(Cl)cs4)cc3=O)cc2n1C [Example 236]"
tested_on = "human MCHR1 (Homo sapiens)"
measure_name = "inhibition at 0.1 µM"
unit_name = "%"
experimental_value = 96

[[record]]
compound = "Cn1c(C2CC2)nc2ccc(-n3ccc(OCc4ccc(C(F)F)s4)cc3=O)cc21 [Example 248]"
tested_on = "human MCHR1 (Homo sapiens)"
measure_name = "inhibition at 0.1 µM"
unit_name = "%"
experimental_value = 97

[[record]]
compound = "CCc1nc2ccc(-n3ccc(OCc4csc(F)c4)cc3=O)cc2n1C [Example 231]"
tested_on = "human MCHR1 (Homo sapiens)"
measure_name = "inhibition at 0.1 µM"
unit_name = "%"
experimental_value = 95

[[record]]
compound = "Cc1c(C2CC2)nc2ccc(-n3ccc(OCc4ccc(F)cc4)cc3=O)cn12 [Example 1]"
tested_on = "human MCHR1 (Homo sapiens)"
measure_name = "inhibition at 0.1 µM"
unit_name = "%"
experimental_value = 98

[[record]]
compound = "Cc1c(C2CC2)nc2ccc(-n3ncc(OCc4ccc(Cl)cc4)cc3=O)cn12 [Example 55]"
tested_on = "human MCHR1 (Homo sapiens)"
measure_name = "inhibition at 0.1 µM"
unit_name = "%"
experimental_value = 78


---

# tested on: human MCH receptor 1 (MCHR1) (Homo sapiens)
# Construct: expressed in transfected cells; host or cells: CHO cell clone 57 (membrane fraction)
# assay info: human MCH receptor 1 (MCHR1) competitive binding assay with [125I]-MCH(4-19)
# reported conditions: test compound 0.1 μM, human MCHR1-expressing CHO cell membrane fraction, read-out: Binding inhibition rate % (0.1 μM)
measure name: inhibition at 0.1 µM (%)

[[record]]
molecule = "Cc1c(C2CC2)nc2ccc(-n3ccc(COc4ccc(F)cc4)cc3=O)cn12 [Example 170]"
unit_name = "%"
experimental_value = 23

[[record]]
molecule = "Cn1c(C2CC2)nc2ccc(-n3ccc(OCc4csc(C5CC5)n4)cc3=O)cc21 [Example 285]"
unit_name = "%"
experimental_value = 36

[[record]]
molecule = "Cn1c(C2CC2)nc2ccc(-n3ccc(OCc4ccc(F)cc4)cc3=O)cc21 [Example 2]"
unit_name = "%"
experimental_value = 80

[[record]]
molecule = "Cc1nc2ccc(-n3ccc(OCc4ccc(Cl)cc4)cc3=O)cn2c1C [Example 25]"
unit_name = "%"
experimental_value = 58

[[record]]
molecule = "CCCn1c(C2CC2)nc2ccc(-n3ccc(OCc4ccc(Cl)cc4)cc3=O)cc21 [Example 27]"
unit_name = "%"
experimental_value = 55


---

# tested on: human MCH receptor 1 (MCHR1) (Homo sapiens)
# Construct: expressed in transfected cells; host or cells: CHO cell clone 57 (membrane fraction)
# assay info: human MCH receptor 1 (MCHR1) competitive binding assay with [125I]-MCH(4-19)
# reported conditions: test compound 0.1 μM, human MCHR1-expressing CHO cell membrane fraction, read-out: Binding inhibition rate % (0.1 μM)
Label satisfied when inhibition at 0.1 µM >= 80%; otherwise not satisfied.

[[record]]
compound = "Cn1c(C2CC2C(C)(C)F)nc2ccc(-n3ccc(OCc4ccc(Cl)cc4)cc3=O)cc21 (centres unmarked) [Example 207]"
tested_on = "human MCH receptor 1 (MCHR1) (Homo sapiens)"
label_value = "satisfied"

[[record]]
compound = "Cn1c([C@@H]2C[C@@H]2C(C)(C)O)nc2ccc(-n3ccc(OCc4ccc(Cl)cn4)cc3=O)cc21 (racemic) [Example 204]"
tested_on = "human MCH receptor 1 (MCHR1) (Homo sapiens)"
label_value = "not satisfied"

[[record]]
compound = "Cn1c(C2CC2)nc2ccc(-n3ccc(OCc4ccsc4F)cc3=O)cc21 [Example 217]"
tested_on = "human MCH receptor 1 (MCHR1) (Homo sapiens)"
label_value = "not satisfied"

[[record]]
compound = "Cc1c(C2CC2)nc2ccc(-n3ccc(OCc4ccc(Cl)c(F)c4)cc3=O)cn12 [Example 151]"
tested_on = "human MCH receptor 1 (MCHR1) (Homo sapiens)"
label_value = "not satisfied"

[[record]]
compound = "Cc1c(C2CC2)nc2ccc(-n3ccc(OCc4ccc(Br)cc4)cc3=O)cn12 [Example 192]"
tested_on = "human MCH receptor 1 (MCHR1) (Homo sapiens)"
label_value = "satisfied"

[[record]]
compound = "CCc1nc2ccc(-n3ccc(OCc4csc(C(F)(F)F)c4)cc3=O)cc2n1C [Example 265]"
tested_on = "human MCH receptor 1 (MCHR1) (Homo sapiens)"
label_value = "not satisfied"

[[record]]
compound = "Cn1c(C2CC2)nc2ccc(-n3ccc(OCc4csc(Br)c4)cc3=O)cc21 [Example 250]"
tested_on = "human MCH receptor 1 (MCHR1) (Homo sapiens)"
label_value = "satisfied"

[[record]]
compound = "CC(C)Cc1nc2ccc(-n3ccc(OCc4ccc(Cl)cc4)cc3=O)cc2n1C [Example 37]"
tested_on = "human MCH receptor 1 (MCHR1) (Homo sapiens)"
label_value = "not satisfied"

[[record]]
compound = "Cn1c(C2CC2)nc2ccc(-n3ccc(OCc4csc(Cl)c4)cc3=O)cc21 [Example 143]"
tested_on = "human MCH receptor 1 (MCHR1) (Homo sapiens)"
label_value = "satisfied"

[[record]]
compound = "Cc1c(C2CC2)nc2ccc(-n3ccc(OCc4ccc(C(F)(F)F)cc4)cc3=O)cn12 [Example 5]"
tested_on = "human MCH receptor 1 (MCHR1) (Homo sapiens)"
label_value = "not satisfied"

[[record]]
compound = "CCc1nc2ccc(-n3ccc(OCc4csc(C(F)F)n4)cc3=O)cc2n1C [Example 288]"
tested_on = "human MCH receptor 1 (MCHR1) (Homo sapiens)"
label_value = "not satisfied"

[[record]]
compound = "Cn1c(C2CC2)nc2ccc(-n3ccc(COc4ccc(Cl)cc4)cc3=O)cc21 [Example 245]"
tested_on = "human MCH receptor 1 (MCHR1) (Homo sapiens)"
label_value = "not satisfied"


---

# tested on: human MCHR1 (Homo sapiens)
# Construct: expressed in transfected cells; host or cells: CHO dhfr- cells, clone #4
# assay info: MCH receptor 1 antagonistic activity, Ca2+ mobilization assay
# Type: cell-based
# reported conditions: CHO, test compound 0.1 μM; human MCHR1-expressing CHO cells (clone #4); ligand MCH(4-19) 2 nM; read-out: Inhibitory rate % (0.1 μM)
Label t when inhibition at 0.1 µM >= 90%; otherwise f.

[[record]]
compound = "Cc1c(C2CC2)nc2ccc(-n3ccc(COc4ccc(F)cc4)cc3=O)cn12 [Example 170]"
label_value = "f"

[[record]]
compound = "Cc1c(C2CC2)nc2ccc(-n3ccc(OCc4csc(C(F)(F)F)n4)cc3=O)cn12 [Example 179]"
label_value = "t"

[[record]]
compound = "Cn1c(C2CC2)nc2ccc(-n3ccc(OCc4csc(Br)c4)cc3=O)cc21 [Example 250]"
label_value = "t"

[[record]]
compound = "Cn1c(C2CC2)nc2ccc(-n3ccc(OCc4cccc(Cl)c4)cc3=O)cc21 [Example 127]"
label_value = "f"

[[record]]
compound = "Cc1c(C2CC2)nc2ccc(-n3ccc(OCc4cc(Cl)cs4)cc3=O)cn12 [Example 168]"
label_value = "t"

[[record]]
compound = "Cc1c(C2CC2)nc2ccc(-n3ccc(OCc4csc(C(F)(F)F)c4)cc3=O)cn12 [Example 183]"
label_value = "f"

[[record]]
compound = "Cn1c(C2CC2)nc2ccc(-n3ccc(OCc4ccc(C(F)(F)F)o4)cc3=O)cc21 [Example 241]"
label_value = "f"

[[record]]
compound = "Cc1csc(COc2ccn(-c3ccc4nc(C5CC5)n(C)c4c3)c(=O)c2)n1 [Example 268]"
label_value = "f"


---

Each record here notes measured PLsis inducing potential.
# System: HepG2 cells
# assay info: PLsis (phospholipidosis) inducing potential, NBD-PE uptake
# Assay type: cell-based
# reported conditions: 24 hr exposure, relative value to 10 μM Amiodarone, maximum value per unit concentration
measure name: PLsis inducing potential

[[record]]
structure = "CCc1nc2ccc(-n3ccc(OCc4ccc(F)cc4)cc3=O)cc2n1C"
experimental_value = 1.6

[[record]]
structure = "CCc1nc2ccc(-n3ccc(OCc4csc(Cl)c4)cc3=O)cc2n1C"
experimental_value = 2.1

[[record]]
structure = "Cn1c(C2CC2)nc2ccc(-n3ccc(OCc4ccc(F)c(F)c4)cc3=O)cc21"
experimental_value = 1.8

[[record]]
structure = "Cn1c(C2CC2)nc2ccc(-n3ccc(OCc4ccc(Cl)s4)cc3=O)cc21"
experimental_value = 1.7

[[record]]
structure = "Cn1c(C2CC2)nc2ccc(-n3ccc(OCc4ccc(Cl)cn4)cc3=O)cc21"
experimental_value = 1.6

[[record]]
structure = "Cc1c(C2CC2)nc2ccc(-n3ccc(OCc4ccc(Cl)cc4)cc3=O)cn12"
experimental_value = 2.4

[[record]]
structure = "Cc1c(C2CC2)nc2ccc(-n3ccc(OCc4ccc(F)cc4)cc3=O)cn12"
experimental_value = 2.5

[[record]]
structure = "Cc1c(C2CC2)nc2ccc(-n3ccc(OCc4ccccc4)cc3=O)cn12"
experimental_value = 2.0

[[record]]
structure = "Cc1c(C2CC2)nc2ccc(-n3ccc(OCc4ccc(F)s4)cc3=O)cn12"
experimental_value = 2.0

[[record]]
structure = "Cn1c(C2CC2)nc2ccc(-n3ccc(OCc4ccc(F)cc4)cc3=O)cc21"
experimental_value = 2.2

[[record]]
structure = "Cn1c(C2CC2)nc2ccc(-n3ccc(OCc4csc(Cl)c4)cc3=O)cc21"
experimental_value = 1.6

[[record]]
structure = "Cc1nc2ccc(-n3ccc(OCc4ccc(F)cc4)cc3=O)cc2n1C"
experimental_value = 1.7

